- TEST: Single oral dose pharmacokinetics of BKIs in mice (plasma)
- Assay type: in vivo
- STATED_CONDITIONS: single oral dose 10 mg/kg, mouse plasma
Classify as follows. Reported AUC greater than or equal to 70 µmol·min/L: 1.0. Reported AUC below: 0.0.

Solved cases below.
1. CC(C)Cn1nc(-c2ccc3cc(OC4CC4)ccc3c2)c2c(N)ncnc21 [BKI 1534]    0.0
2. Nc1ncnc2c1c(-c1ccc3nc(OC4CC4)ccc3c1)nn2CC1CCOCC1 [BKI 1557]    0.0
3. CCOc1ccc2cc(-c3nn(CC4CCN(C)CC4)c4ncnc(N)c34)ccc2c1 [BKI 1294]    1.0

Asked: Record CCOc1ccc2cc(-c3nn(CC4CCNCC4)c4ncnc(N)c34)ccc2n1 [BKI 1318] ; criterion: AUC no lower than 70 µmol·min/L. Met?
Given back: 1.0

Asked: Record CC(C)(O)Cn1cc(-c2ccc3nc(OC4CC4)ccc3c2)c2c(N)ncnc21 [BKI 1649] ; criterion: AUC no lower than 70 µmol·min/L. Met?
Given back: 1.0

Values compiled from paper PMC5853285.
